pIC50: −log10 of the molar value.
Entries below carry reported pIC50 on c-Src (Homo sapiens (Human), UniProt P12931).
Sequence (P12931 whole entry, looked up): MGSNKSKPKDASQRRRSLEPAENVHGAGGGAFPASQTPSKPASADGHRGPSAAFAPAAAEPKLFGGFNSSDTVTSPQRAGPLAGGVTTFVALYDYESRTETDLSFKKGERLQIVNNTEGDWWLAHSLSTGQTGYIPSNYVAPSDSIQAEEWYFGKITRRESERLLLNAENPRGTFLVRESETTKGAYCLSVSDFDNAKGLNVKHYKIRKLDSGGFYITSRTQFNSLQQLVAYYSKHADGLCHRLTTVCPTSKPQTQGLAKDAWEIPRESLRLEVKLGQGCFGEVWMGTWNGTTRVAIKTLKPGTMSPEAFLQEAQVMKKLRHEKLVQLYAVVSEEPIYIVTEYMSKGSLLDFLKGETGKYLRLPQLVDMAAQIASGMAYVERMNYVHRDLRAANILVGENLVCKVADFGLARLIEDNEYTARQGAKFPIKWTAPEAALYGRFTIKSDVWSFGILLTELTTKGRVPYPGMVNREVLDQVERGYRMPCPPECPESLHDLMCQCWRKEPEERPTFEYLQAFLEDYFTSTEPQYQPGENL

{"COMPOUND_STRING": "CNC(=O)c1cc(C(C)(C)C)cc(NC(=O)Nc2ccc(Oc3ccnc(Nc4cc(OC)cc(OCCOCCOCCOC)c4)n3)c3ccccc23)c1OC", "pIC50": 8.05}
{"COMPOUND_STRING": "COCCOCCOCCNC(=O)c1cc(Nc2cc(Oc3ccc(NC(=O)Nc4cc(C(C)(C)C)cc(NS(C)(=O)=O)c4OC)c4ccccc34)ccn2)cc(OC)c1", "pIC50": 7.70}
{"COMPOUND_STRING": "COCCOCCOCCOc1cc(Nc2nccc(Oc3ccc(NC(=O)Nc4cc(C(C)(C)C)cc(C(=O)NC5CC5)c4OC)c4ccccc34)n2)cc(OC)c1", "pIC50": 7.96}
{"COMPOUND_STRING": "C#Cc1cc(Nc2nccc(Oc3ccc(NC(=O)Nc4cc(F)cc(N5CCOCC5)c4)c4ccccc34)n2)cc(C(=O)NCCN2CCOCC2)c1", "pIC50": 7.35}
{"COMPOUND_STRING": "C#Cc1cc(Nc2nccc(Oc3ccc(NC(=O)Nc4cc(C(C)(C)C)cc(NS(C)(=O)=O)c4OC)c4ccccc34)n2)cc(C(=O)N[C@H](C)CN2CCOCC2)c1", "pIC50": 7.35}
{"COMPOUND_STRING": "C#Cc1cc(Nc2nccc(Oc3ccc(NC(=O)Nc4cc(C(C)(C)C)cc(C(=O)NC)c4OC)c4ccccc34)n2)cc(C(=O)NCCN2CCOCC2)c1", "pIC50": 8.10}
